Data provenance is ChEMBL document CHEMBL1961873.

Target: Serine/threonine-protein kinase PAK 3 (Homo sapiens) (UniProt O75914);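 further: reported percentage is a mean inhibition value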
Sequence (O75914 whole entry, looked up): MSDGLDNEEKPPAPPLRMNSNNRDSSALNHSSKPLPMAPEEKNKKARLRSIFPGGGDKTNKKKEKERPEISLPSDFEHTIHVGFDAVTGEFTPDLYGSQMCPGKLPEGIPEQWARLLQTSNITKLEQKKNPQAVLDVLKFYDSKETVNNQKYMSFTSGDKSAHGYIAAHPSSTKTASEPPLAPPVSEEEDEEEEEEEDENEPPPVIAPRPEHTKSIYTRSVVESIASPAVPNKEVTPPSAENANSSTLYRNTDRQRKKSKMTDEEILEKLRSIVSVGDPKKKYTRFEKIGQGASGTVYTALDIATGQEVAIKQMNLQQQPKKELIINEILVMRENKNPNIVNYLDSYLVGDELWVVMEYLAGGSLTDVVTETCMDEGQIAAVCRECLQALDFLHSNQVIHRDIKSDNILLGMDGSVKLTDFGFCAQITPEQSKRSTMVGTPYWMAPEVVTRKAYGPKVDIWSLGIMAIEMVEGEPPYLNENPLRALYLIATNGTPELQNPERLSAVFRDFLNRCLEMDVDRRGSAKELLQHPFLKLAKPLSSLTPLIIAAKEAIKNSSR
Settings: at 1 µM
PROPERTY_MEASURED: inhibition

compound=CCn1c(-c2nonc2N)nc2cncc(C(=O)N3CC[C@H](N)C3)c21 reported_value=4.59%
compound=O=C1NC(=O)C(c2ccccc2Cl)=C1Nc1cccc(O)c1 reported_value=3.3%
compound=COc1ccc(-c2coc3ncnc(N)c23)cc1 reported_value=4.26%
compound=Cn1cc(C=C2C(=O)Nc3cccnc32)c2ccccc21 reported_value=3%
compound="CC1=C(C(=O)Nc2ccc3[nH]ncc3c2)C(c2ccc(Cl)c(Cl)c2)CC(=O)N1 (stereo not given)" reported_value=0.53%
compound=CS(=O)(=O)CCNCc1nc(-c2ccc3ncnc(Nc4ccc(F)c(Cl)c4)c3c2)cs1 reported_value=3.08%
compound=COc1cc2ncn(-c3cc(O[C@H](C)c4ccccc4Cl)c(C(N)=O)s3)c2cc1OC reported_value=6.53%
compound=Cc1ccc(NC(=O)c2ccnc(N3CCCC3)c2)cc1-c1ccc(C(=O)NCC2CC2)cc1 reported_value=5.08%
compound=O=C1NC(=O)C(c2cccc(Cl)c2)=C1Nc1ccc(O)c(Cl)c1 reported_value=1.4%
compound=CS(=O)(=O)Nc1ccc(N/C=C2\C(=O)Nc3ccccc32)cc1 reported_value=-2.59%

====

Molecular target: Angiopoietin-1 receptor (Homo sapiens)
Details: at 0.1 µM
Description: GSK_PKIS: TIE2 mean inhibition at 0.1 uM [Nanosyn]
PROPERTY_MEASURED: inhibition (%)

chemical_string=CS(=O)(=O)CCNCc1ccc(-c2ccc3ncnc(Nc4ccc(OCc5ccccc5)c(Cl)c4)c3c2)o1 display_unit=% reported_value=7.47
chemical_string=CCN1CCC(CC(=O)Nc2n[nH]c3nc(-c4cccs4)c(Br)cc23)CC1 display_unit=% reported_value=9.68
chemical_string=NS(=O)(=O)c1ccc(N/N=C2\C(=O)Nc3ccc(C(=O)NCCc4c[nH]cn4)cc32)cc1 display_unit=% reported_value=1.64
chemical_string=Cc1cccc(-c2n[nH]cc2-c2ccc3ncccc3n2)n1 display_unit=% reported_value=1.2
chemical_string=COC(=O)Nc1nc2cc(Oc3cccc(NC(=O)Nc4cc(C(F)(F)F)ccc4F)c3)ccc2[nH]1 display_unit=% reported_value=1.09
chemical_string=COc1cc2ncn(-c3cc(OCc4ccccc4C(F)(F)F)c(C(N)=O)s3)c2cc1OC display_unit=% reported_value=6.11
chemical_string=Cc1ccc(C(=O)NC2CCCCC2)cc1-c1ccc(C(=O)NCC2CC2)cc1 display_unit=% reported_value=1.79
chemical_string=O=C1NC(=O)C(c2cccc(Cl)c2)=C1Nc1ccc(O)c(Cl)c1 display_unit=% reported_value=1.54
chemical_string=COc1cc2ncn(-c3cc(O[C@@H](C)c4ccccc4Cl)c(C(N)=O)s3)c2cc1OC display_unit=% reported_value=4.95
chemical_string=CCn1c(-c2nonc2N)nc2cnc(Oc3cccc(NC(=O)c4ccc(OCCN5CCOCC5)cc4)c3)cc21 display_unit=% reported_value=3.75
chemical_string=NC(=O)c1ccc(-c2nc(-c3ccccn3)c(-c3ccc4c(c3)OCO4)[nH]2)cc1 display_unit=% reported_value=5.33
chemical_string=NCc1ccc(-c2nc(-c3ccc(Cl)c(O)c3)c(-c3ccncc3)[nH]2)cc1 display_unit=% reported_value=4.33
chemical_string=COc1ccccc1Nc1ncc(-c2ccccc2)o1 display_unit=% reported_value=0.33
chemical_string=CNC(=O)c1cncc(/C=C/c2c(Cl)cccc2Cl)c1 display_unit=% reported_value=5.91
chemical_string=COc1cc(C=NNc2ncnc3c2cnn3-c2ccccc2)ccc1O display_unit=% reported_value=13
chemical_string=O=C1NC(=O)C(N2CCc3ccccc32)=C1c1ccc(Cl)cc1 display_unit=% reported_value=5.59
chemical_string=CCn1c(-c2nonc2N)nc2ccncc21 display_unit=% reported_value=2.16
chemical_string=O=C1NC(=O)C(c2ccc(Cl)cc2)=C1Nc1ccc(Cl)c(C(=O)O)c1 display_unit=% reported_value=-0.19
chemical_string=COc1ccc(-c2coc3ncnc(N)c23)cc1 display_unit=% reported_value=2.58
chemical_string=O=C1Nc2ccc(C(=O)c3ccco3)cc2C1=Cc1cc(Cl)c(O)c(Cl)c1 display_unit=% reported_value=2.1
chemical_string=CS(=O)(=O)CCN(CC#N)Cc1ccc(-c2ccc3ncnc(Nc4ccc(OCc5cccc(F)c5)c(Cl)c4)c3c2)o1 display_unit=% reported_value=2.27
